# System: Pseudomonas aeruginosa
# experiment: In vitro antimicrobial activity against strain Pseudomonas aeruginosa 9843
# Format: functional
test-readout: log10 MIC (log10 of the value in µg/mL)
Scale: log10; quantity: MIC; unit before log: µg/mL

Check out these entries, answers already filled in.
NC1CCN(c2ccc3c(=O)c(C(=O)O)cn(C4CC4)c3c2)C1 (stereo unspecified) ... -0.30
NC1CCN(c2cc(F)c3c(=O)c(C(=O)O)cn(C4CC4)c3c2F)C1 (stereo unspecified) ... 0.30
NC1CCN(c2cc(F)c3c(=O)c(C(=O)O)cn(C4CC4)c3c2)C1 (stereo unspecified) ... 0.60
NC1CCN(c2cc3c(cc2F)c(=O)c(C(=O)O)cn3C2CC2)C1 (stereo unspecified) ... -0.60
NC1CCN(c2c(F)cc3c(=O)c(C(=O)O)cn(C4CC4)c3c2F)C1 (stereo unspecified) ... -0.89

Let us move to another entry and its log10 MIC.
Any idea what log10 MIC was measured for NC1CCN(c2ccc3c(=O)c(C(=O)O)cn(C4CC4)c3c2F)C1 (stereo unspecified) ?
-0.60

* * *

Reported MIC values for the following compounds.
# Test system: Enterobacter cloacae
# experiment: In vitro antimicrobial activity against strain Enterobacter cloacae 9656
# Type: functional
Please give a number only; it is taken to be in mg/L.

Some solved cases for reference:
NC1CCN(c2cc(F)c3c(=O)c(C(=O)O)cn(C4CC4)c3c2F)C1 (stereo unspecified) ... 0.06
NC1CCN(c2cc3c(cc2F)c(=O)c(C(=O)O)cn3C2CC2)C1 (stereo unspecified) ... 0.004
NC1CCN(c2ccc3c(=O)c(C(=O)O)cn(C4CC4)c3c2F)C1 (stereo unspecified) ... 0.03
NC1CCN(c2c(F)cc3c(=O)c(C(=O)O)cn(C4CC4)c3c2F)C1 (stereo unspecified) ... 0.016
NC1CCN(c2ccc3c(=O)c(C(=O)O)cn(C4CC4)c3c2)C1 (stereo unspecified) ... 0.13

Now turn to the next compound.
Which MIC is reported for this compound? NC1CCN(c2cc(F)c3c(=O)c(C(=O)O)cn(C4CC4)c3c2)C1 (stereo unspecified)
0.13

* * *

# Test system: Staphylococcus aureus
# experiment: In vitro antimicrobial activity against strain Staphylococcus aureus 9537
# Format: functional
We begin with a simple list: items and their reported MIC.
Kindly answer with a numeric value in µg/mL, unit omitted.

NC1CCN(c2ccc3c(=O)c(C(=O)O)cn(C4CC4)c3c2)C1 (configuration not stated) ... 0.25
NC1CCN(c2cc3c(cc2F)c(=O)c(C(=O)O)cn3C2CC2)C1 (configuration not stated) ... 0.03

I am curious: what MIC value has been reported for NC1CCN(c2cc(F)c3c(=O)c(C(=O)O)cn(C4CC4)c3c2)C1 (configuration not stated) ?
1

Field request: MIC | item: NC1CCN(c2ccc3c(=O)c(C(=O)O)cn(C4CC4)c3c2F)C1 (configuration not stated)
0.03

// query MIC value for entry NC1CCN(c2c(F)cc3c(=O)c(C(=O)O)cn(C4CC4)c3c2F)C1 (configuration not stated)
0.008

// query MIC value for entry O=C(O)c1cn(C2CC2)c2cc(N3CCNCC3)c(F)cc2c1=O [CIPROFLOXACIN]
0.06

Returns the measured MIC for the input compound. Input: NC1CCN(c2cc(F)c3c(=O)c(C(=O)O)cn(C4CC4)c3c2F)C1 (configuration not stated)
0.13
